Test context: [M+H]+; instrument: DT; single field, calibrated with Agilent tune mix (Agilent)
Quantity name: collision cross section (N2) (Å²)

# Compound, Quantity name, Observed result
rows = [
    ("Cc1c[nH]c(=O)[nH]c1=O", "collision cross section (N2)", 121.9),
    ("N[C@@H](Cc1ccc(O)c(I)c1)C(=O)O", "collision cross section (N2)", 158.8),
    ("O=C(O)/C=C/c1cnc[nH]1", "collision cross section (N2)", 134.1),
    ("CC(=O)[C@H]1CC[C@H]2[C@@H]3CC=C4C[C@@H](O)CC[C@]4(C)[C@H]3CC[C@]12C", "collision cross section (N2)", 174),
    ("O=c1nc[nH]c2c1ncn2[C@@H]1O[C@H](COP(=O)(O)OP(=O)(O)O)[C@@H](O)[C@H]1O [Inosine diphosphate]", "collision cross section (N2)", 185.6),
]

---

collision cross section (N2) reference
Test context: [M+Na]+; instrument: TW; calibrated with polyalanine and drug standards
Quantity name: collision cross section (N2) (Å²)

# Compound, Observed result
measured = [
    ("C[C@H](CCC(=O)NCC(=O)O)[C@H]1CC[C@H]2[C@@H]3[C@H](O)C[C@@H]4C[C@H](O)CC[C@]4(C)[C@H]3C[C@H](O)[C@]12C [GLYCOCHOLIC ACID]", 200.8),
    ("CC[C@H](C)C(=O)O[C@H]1CCC=C2C=C[C@H](C)[C@H](CC[C@@H]3C[C@@H](O)CC(=O)O3)[C@H]21 [MEVASTATIN]", 198.4),
    ("COc1ccc([C@@H]2CC(=O)c3c(O)cc(O[C@@H]4O[C@H](CO[C@@H]5O[C@@H](C)[C@H](O)[C@@H](O)[C@H]5O)[C@@H](O)[C@H](O)[C@H]4O)cc3O2)cc1O [HESPERIDIN]", 227),
    ("C=C[C@@]1(C)CC(=O)[C@@]2(O)[C@](C)(O1)[C@@H](O)[C@@H](O)C1C(C)(C)CC[C@H](O)[C@@]12C (some centres undefined) [DESACETYLCOLFORSIN]", 185.6),
]

---

Test context: [M+Na]+; instrument: DT; stepped-field

# Compound, collision cross section (N2)
measured = [
    ("CCCCCCCCCCCCC=CC[C@@H](O)[C@H](CO[C@@H]1O[C@H](CO)[C@@H](O)C(O)C1O)NC(=O)CC=CCCCCCCCCCCCCCCCCCCC (stereo partly drawn)", "299.6 Å²"),
    ("CCCCC/C=C\\C/C=C\\C/C=C\\CCCCC(=O)OC[C@H](COP(=O)(O)OCCN)OC(=O)CCCCCCCCCCC/C=C\\C/C=C\\CCCCC", "294.8 Å²"),
    ("CC/C=C\\C/C=C\\C/C=C\\C/C=C\\C/C=C\\C/C=C\\CCC(=O)OC[C@H](COP(=O)(O)OC[C@H](N)C(=O)O)OC(=O)CCCCC/C=C\\C/C=C\\C/C=C\\C/C=C\\CCCCC", "303.5 Å²"),
]

---

Test context: [M+H]+; instrument: TW; Major Mix IMS/Tof Calibration Kit (Waters)
Reported collision cross section (N2) by item:

# Molecule, collision cross section (N2)
records = [
    ("O=C(O)COCCN1CCN(C(c2ccccc2)c2ccc(Cl)cc2)CC1 (stereo not drawn)", "200.8 Å²"),
    ("CCCC1C(=O)N2C(N(C)C)=Nc3ccc(C)cc3N2C1=O (stereo not drawn)", "169.5 Å²"),
    ("O=C1C[C@@H]2OCC=C3CN4CC[C@]56c7ccccc7N1[C@H]5[C@H]2[C@H]3C[C@H]46", "172 Å²"),
    ("CN(C)CCc1c[nH]c2cccc(OP(=O)(O)O)c12", "157.3 Å²"),
    ("CCC(=O)C(CC(C)N(C)C)(c1ccccc1)c1ccccc1 (stereo not drawn)", "177.7 Å²"),
    ("Cc1cnc(C(=O)NCCc2ccc(S(=O)(=O)NC(=O)NC3CCCCC3)cc2)cn1 [Glipizide]", "198.9 Å²"),
    ("CC1=C(CC(=O)O)c2cc(F)ccc2/C1=C\\c1ccc(S(C)=O)cc1 (stereo not drawn)", "192.6 Å²"),
    ("CCOC(=O)C1=C(C)NC(C)=C(C(=O)OC)C1c1cccc([N+](=O)[O-])c1 (stereo not drawn)", "182.2 Å²"),
    ("c1cnc2cc3c(cc2n1)[C@@H]1CNC[C@H]3C1", "151 Å²"),
    ("CN(C)CCc1c[nH]c2ccc(CS(=O)(=O)N3CCCC3)cc12", "175.8 Å²"),
    ("CCOC(=O)[C@H](CCc1ccccc1)N[C@@H](C)C(=O)N1CCC[C@H]1C(=O)O", "187.2 Å²"),
    ("Nc1ccc2c(c1)C(c1ccccc1)=NCC(=O)N2", "158.1 Å²"),
    ("CN1C(=O)CC(=O)N(c2ccccc2)c2cc(Cl)ccc21", "165.7 Å²"),
    ("COc1cc(CNC(=O)CCCC/C=C/C(C)C)ccc1O", "183 Å²"),
    ("CN1CCN(CCCN2c3ccccc3Sc3ccc(Cl)cc32)CC1", "183.7 Å²"),
    ("CC[C@@H](c1cccc(O)c1)[C@@H](C)CN(C)C", "152.1 Å²"),
    ("CCCC(C(=O)c1ccc2c(c1)OCO2)N1CCCC1 (stereo not drawn)", "166.7 Å²"),
    ("CN1CCN=C(c2ccccc2)c2cc(Cl)ccc21", "160.8 Å²"),
]
